Entries and their measured log10 of TGI follow.
test system: UACC-62 melanoma; assay: NCI tumour cell line growth inhibition, 48 h
Response schema: value (number) is log10 of TGI in units of µM.

Examples from the recorded data:
{"columns": ["COMPOUND", "log10 of TGI"],
 "data": [
  ["OB1OCc2cc(/C=C/c3cccc(C(F)(F)F)c3)ccc21", 1.80],
  ["CN(C)Cc1c[nH]c2c(NCCN)c3c(c(NCCN)c12)C(=O)c1ccccc1C3=O", 0.62],
  ["O=P(c1ccccc1)(c1ccccc1)N1O[C@@H](c2ccccc2)C=C[C@H]1c1ccccc1", 1.29],
  ["O=C(c1ccc2ccccc2c1)c1c(C(F)(F)F)n([O-])c2ccc(Cl)cc2[n+]1=O", 0.49],
  ["O=C1c2cc3c(cc2CC1Br)CCC3 (stereo not drawn)", 1.07],
  ["CC1CC[C@@]2(OC1)OC1C[C@H]3[C@@H]4CC[C@H]5CC(OC6OC(CO)C(OC7OC(CO)C(O)C(O)C7OC7OC(CO)C(O)C(O)C7O)C(O)C6O)CCC5(C)[C@H]4CCC3(C)C1[C@@H]2C (stereo partly drawn)", 1.22],
  ["COc1ccc2nc3cc(Cl)ccc3c(NCCCNCCCNc3c4ccc(Cl)cc4nc4ccc(OC)cc34)c2c1", -0.72],
  ["CNC(=O)c1cc2c(Oc3ccc(NC(=O)C4(C(=O)Nc5ccc(F)cc5)CC4)cc3)ccnc2cc1OC", 1.18],
  ["N=S(c1ccccc1)c1ccccc1[N+](=O)[O-] (stereo not drawn)", 1.56],
  ["O=C1/C(=C\\c2cccc(Oc3ccccc3)c2)S(=O)(=O)C(c2ccccc2)N1Cc1ccccc1 (stereo not drawn)", 1.76]
]}

Please find the next compound below.
Quick note, log10 of TGI for O=C1C(Cl)=C(Nc2ccccc2)C(=O)c2ccccc21 landed at 0.52

====

tested on: SNB-19 CNS; assay: NCI tumour cell line growth inhibition, 48 h
MEASURED_PARAMETER: TGI

The following compounds have reported results that may help.
{"columns": ["COMPOUND", "TGI"],
 "data": [
  ["COc1ccc(-c2nnc(N3CCN(C(=O)CN4CCN(c5ccc(OC)cc5)CC4)CC3)nc2-c2ccc(OC)cc2)cc1", "46.4 µM"],
  ["OB1OCc2cc(/C=C/c3cccc(C(F)(F)F)c3)ccc21", "48.7 µM"],
  ["CCOC(=O)c1c(-c2ccc(OC)cc2)c(C#N)c(=S)n(C2OC(COC(C)=O)C(OC(C)=O)C(OC(C)=O)C2OC(C)=O)c1C (centres undefined)", "> 100 µM"],
  ["CC1CC[C@@]2(OC1)OC1C[C@H]3[C@@H]4CC[C@H]5CC(OC6OC(CO)C(OC7OC(CO)C(O)C(O)C7OC7OC(CO)C(O)C(O)C7O)C(O)C6O)CCC5(C)[C@H]4CCC3(C)C1[C@@H]2C (some centres undefined)", "10.3 µM"]
]}

Documented TGI of Cc1c(C(=O)CSc2nc3ccccc3c(=O)n2-c2ccccc2)c(=O)n(-c2ccccc2)n1C : > 100 µM

The recorded TGI for entry O=C1C2=C(c3ccccc31)C(c1ccccc1Cl)N1C(=O)CCSC1=N2 (centres undefined) equals > 100 µM

The compound listed as N#CC(C#N)=CNC(=S)c1ccncc1 has a reported TGI of > 100 µM

Entry CCN(CC)CCOc1ccc(N2C(=O)c3cc(OC)c(OC)cc3C2=O)cc1 — recorded TGI = > 100 µM

// recorded TGI for CCN(CC)CC(=O)N1CCc2c([nH]c3ccccc23)C1c1cccnc1 (centres undefined) : > 100 µM

====

system: NCI-H522 lung; test: NCI tumour cell line growth inhibition, 48 h
MEASURED_PARAMETER: TGI

These solved cases illustrate the format of a correct answer.
{"columns": ["MOLECULE", "TEST_RESULT"],
 "data": [
  ["CCN(C(=S)N[C@@H](Cc1ccccc1)C(=O)N[C@@H](CC(C)C)C(=O)OC)c1ccccc1", "> 100 µM"],
  ["COc1ccc(C2(CC(C)O)SCCCS2)cc1 (stereo not drawn)", "> 100 µM"],
  ["OC(CN1CC1)C(O)CN1CC1 (stereo not drawn)", "> 50 mg/L"]
]}

Let me check: NC(=O)/C=C/C(=O)O , system NCI-H522 lung, measured TGI is > 5000 µM

Tested system NCI-H522 lung; TGI recorded for CCC(=C(c1ccc(OCCCN(C)C)cc1)c1ccc(OCCCN(C)C)cc1)c1ccc(Cl)cc1 was 1.69 µM

====

tested on: TK-10 renal; experiment: NCI tumour cell line growth inhibition, 48 h
MEASURED_PARAMETER: TGI

{"columns": ["COMPOUND", "TARGET_SYSTEM", "TGI"],
 "data": [
  ["N#C/C(=C\\c1cc(Br)c(O)c(Br)c1)c1cccnc1", "TK-10 renal", "87.2 µM"],
  ["CC(=O)OCC1OC(n2cc([N+](=O)[O-])c(=O)[nH]c2=O)C(OC(C)=O)C(OC(C)=O)C1OC(C)=O (stereo not drawn)", "TK-10 renal", "> 100 µM"],
  ["COc1ccc(C2(CC(C)O)SCCCS2)cc1 (stereo not drawn)", "TK-10 renal", "> 100 µM"],
  ["COc1ccccc1/C=C/C(=O)/C=C/c1ccccc1O", "TK-10 renal", "5.74 µM"]
]}

Let us move to another entry and its TGI.
Form: compound = c1ccc(Cn2cnc3ccc(-c4nc(-c5ccc6c(c5)ncn6C5CCCCC5)cn5ccnc45)cc32)cc1 ; TGI = > 100 µM

====

test system: DU-145 prostate; experiment: NCI tumour cell line growth inhibition, 48 h
Reported TGI by item:

Example cases with answers are listed next.
{"columns": ["MOLECULE", "TGI"],
 "data": [
  ["O=C(NCCN1CCOCC1)c1ccc2cc(C(=O)N3CC(CCl)c4ccc([N+](=O)[O-])cc43)[nH]c2c1 (stereo unspecified)", "49.3 µM"],
  ["O=C1CN2C(c3ccccc3)=NN(c3ccc([N+](=O)[O-])cc3)C2(c2ccccc2)c2cc(Cl)ccc2N1CC1CC1 (stereo unspecified)", "> 100 µM"],
  ["O=C(O)CCC(NC(=S)S)C(=O)O.[Na+].[Zn+2] (stereo unspecified)", "> 50 µM"],
  ["CCN(CC)CCOc1ccc(N2C(=O)c3cc(OC)c(OC)cc3C2=O)cc1", "> 100 µM"],
  ["O=c1c2c3c(sc2n2c(-c4cc(-c5ccccc5)nn4-c4ccccc4)nnc2n1Cc1ccccc1)CCCC3", "> 100 µM"]
]}

Kindly note the recorded TGI for CC(O)C1CC1(CO)CNc1cc(Cl)nc(N)n1 (stereo unspecified) , which is > 100 µM

The reported TGI of the molecule O=C/C(=C(/Cl)c1ccc(O)cc1)c1ccccc1 was > 100 µM

Value of TGI reported for the molecule CC(=O)NNc1nc(C)c(C(=O)NNC(=O)C(=O)Nc2nc3ccc([N+](=O)[O-])cc3s2)s1 is > 100 µM

Looking up O=C(CCCN1CCC2(CC1)CC(=O)N(N1CCOCC1)C2=O)c1ccccc1 , I see its TGI listed as > 100 µM

// TGI lookup, molecule = CC(=O)N/N=C1\NC(=O)C[C@H]2[C@@H]3CC=C4C[C@@H](OC(C)=O)CC[C@]4(C)[C@H]3CC[C@]12C , result: > 100 µM

Reported TGI ( O=[N+]([O-])/C(C(Cl)=C(Cl)Cl)=C(\Nc1cccc2cccnc12)SCc1ccccc1 ) = 39.6 µM

====

test system: RXF 393 renal; test: NCI tumour cell line growth inhibition, 48 h
MEASURED_PARAMETER: TGI

The examples below pair each entry with its known result.
{"columns": ["MOLECULE", "TGI"],
 "data": [
  ["CC1=C2C(=O)c3ccccc3C2=C(C)S(=O)(=O)O1", "> 10 µM"],
  ["OC(CN1CC1)C(O)CN1CC1 (stereo not drawn)", "> 50 µg/mL"]
]}

Please find the next molecule below.
// TGI value for Nc1c(-c2cccc3ccccc23)c2ccc([N+](=O)[O-])cc2c(=O)n1-c1nc2ccccc2s1 : > 31.3 µM

====

system: BT-549 breast; test: NCI tumour cell line growth inhibition, 48 h
Where a SMILES comes first, the peptide text is derived from it. The star is where a group is joined. Boc = CC(C)(C)OC(=O)*
MEASURED_PARAMETER: TGI

// below: answered compounds
{"columns": ["COMPOUND", "TARGET_SYSTEM", "TGI"],
 "data": [
  ["CN(C)Cc1cc(C(=O)/C=C/c2ccc(O)cc2)cc(CN(C)C)c1O", "BT-549 breast", "> 100 µM"],
  ["N#CCCN(CCC#N)c1ccc(/C=C2\\N=C(c3ccccc3)N(c3ccc(Cl)cc3)C2=O)cc1", "BT-549 breast", "> 100 µM"],
  ["CC(C)(C)OC(=O)NCC(=O)NCC(=O)NCC(=O)NCC(=O)O (Boc-GGGG-OH)", "BT-549 breast", "> 100 µM"]
]}

Would you kindly look at the next entry?
The recorded TGI for entry COc1ccc(C2(CC(C)O)SCCCS2)cc1 (centres undefined) equals > 100 µM
